- target-entity: T1, TFECDHis (extracellular domain of tissue factor, amino acid 1-251, with C-terminal His tag) (human, UniProt P13726 33-251)
- T1 construct: range 1-251; The stated range 1-251 starts at residue 1 of NP-001984; also called extracellular domain of TF
- assay-overview: ELISA, coated TFECDHis, mean of 3
In this section we review reported pEC50 values for a set of binders.
# pEC50 = -log10(concentration in molar units)

# count of solved cases: 3
// returns reported pEC50 for input anti-TF HuMab 092-A09 (antibody, V domains shown, Human monoclonal antibody from HuMab mice) VH: EVQLLESGGGLVQPGGSLRLSCAASGFTFNNYAMSWVRQAPGKGLEWVSSISGSGGRTYYADSVKGRFTISRDNSKNTLFLQMNSLRAEDTAVYYCAKTPWGYYFDYWGQGTLVTVSS VL: DIQMTQSPSSLSASVGDRVTITCRASQGISSRLAWYQQKPEKAPKSLIYAASSLQSGVPSRFSGSGSGTDFTLTISSLQPEDFATYYCQQYNSYPYTFGQGTKLEIK
9.74

I have this binder here, anti-TF HuMab 013 (antibody, V domains shown, Human monoclonal antibody from HuMab mice; also called HuMab-TF-13) VH: EVQLVQSGAEVKKPGESLKISCKGSGYSFTSYWIGWVRQMPGKGLEWMGIIYPGDSDTRYSPSFQGQVTISADKSISTAYLQWSSLKASDTAMYYCARIHRGAGYSSSWPGAFDIWGQGTMVTVSS VL: DIQMTQSPSSLSASVGDRVTITCRASQGISRWLAWYQQKPEKAPKSLIYAASSLQSGVPSRFSGSGSGTDFTLTISSLQPEDFATYYCQQYDSDPITFGQGTRLEIK , and I need its recorded pEC50.
9.62

Would you kindly share the measured pEC50 for anti-TF HuMab 011 (antibody, V domains shown, Human monoclonal antibody from HuMab mice; also called HuMab-TF-11) VH: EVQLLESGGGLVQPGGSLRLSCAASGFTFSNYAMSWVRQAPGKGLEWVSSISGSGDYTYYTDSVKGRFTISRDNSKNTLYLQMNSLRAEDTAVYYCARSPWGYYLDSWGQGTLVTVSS VL: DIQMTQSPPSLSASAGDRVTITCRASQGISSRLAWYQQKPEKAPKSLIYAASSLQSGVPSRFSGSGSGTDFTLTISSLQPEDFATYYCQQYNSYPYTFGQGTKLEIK ?
9.80

Further cases:
// lookup pEC50 for anti-TF HuMab 003 (antibody, V domains shown, Human monoclonal antibody from HuMab mice; also called HuMab-TF-003) VH: QVQLVQSGAEVKKPGSSVKVSCKAPRGTFSYYTISWVRQAPGQGLEWMGRIIPILGVANYAQKFQGRVTITADKSTSTAYMELSSLRSEDTAVYYCAREGDRRYFDYWGQGTLVTVSS VL: AIQLTQSPSSLSASVGDRVTITCRASQDISSALAWYQQKPGKAPKLLIYDASILESGVPSRFSGSGSGTDFTLTISSLQPEDFATYYCQQFNSYPLTFGGGTKVEIK
9.34

Recorded pEC50 for anti-TF HuMab 087-Lg6 (antibody, V domains shown, Human monoclonal antibody from HuMab mice) VH: EVQLVQSGAEVKKPGESLKISCKGSGYSFTSCWIGWVRQMPGKGLEWMGIIYPGDSDTRYSPSFQGQVTISADKSISTAYLQWSSLKASDTAMYYCARHKLGMDHDAFDIWGQGTMVTVSS VL: DIQMTQSPSSLSASVGDRVTITCRASQGISSWLAWYQQKPEKAPKSLIYAASSLQSGVPSRFSGSGSGTDFTLTISSLQPEDFATYYCQQYNSYPPTFGQGTTVEVK , please?
10.05

Which pEC50 is listed for anti-TF HuMab 101 (antibody, V domains shown, Human monoclonal antibody from HuMab mice) VH: EVQLLESGGGLVQPGGSLRLSCAASGFTFSNYAMSWVRQAPAKGLDWVSGISGSGVTTYYADSVKGRFTISRDNSKDTLYLQMNSLRAEDTAVYFCAKTPWGYYFDYWGQGILVAVSS VL: DIQMTQSPSSLSASVGDRVTITCRASQGISSWLAWYQQKPEKAPKSLIYAASSLQSGVPSRFSGSGSGTDFTLTISSLQPEDFATYYCQQYNSYPLYTFGQGTKLEIK ?
9.55
